The reported numbers originate from ChEMBL document CHEMBL4229460.

# IC50 per entry for Prostaglandin G/H synthase 1 (Homo sapiens, UniProt P23219)
Numbers only, in µM.

Examples with their reported IC50 follow.
[
  {
    "query.smiles": "O=C(COc1cc(O)c2c(=O)cc(-c3ccccc3)oc2c1)OCc1cc(-c2cccc(F)c2)n(-c2ccccc2)n1",
    "target.desc": "Prostaglandin G/H synthase 1 (Homo sapiens, UniProt P23219)",
    "unit.of.measure": "µM",
    "IC50": 43.2
  },
  {
    "query.smiles": "COc1ccc(-c2cc(COC(=O)COc3cc(O)c4c(=O)cc(-c5ccccc5)oc4c3)nn2-c2ccccc2)cc1",
    "target.desc": "Prostaglandin G/H synthase 1 (Homo sapiens, UniProt P23219)",
    "unit.of.measure": "µM",
    "IC50": 41.3
  },
  {
    "query.smiles": "O=C(COc1cc(O)c2c(=O)cc(-c3ccccc3)oc2c1)OCc1cc(-c2ccc(Br)cc2)n(-c2ccccc2)n1",
    "target.desc": "Prostaglandin G/H synthase 1 (Homo sapiens, UniProt P23219)",
    "unit.of.measure": "µM",
    "IC50": 43.2
  }
]

Count: 2. Required value per item: IC50.
1. Cc1cccc(-c2cc(COC(=O)COc3cc(O)c4c(=O)cc(-c5ccccc5)oc4c3)nn2-c2ccc(Cl)cc2)c1
2. Cc1ccc(-c2cc(COC(=O)COc3cc(O)c4c(=O)cc(-c5ccccc5)oc4c3)nn2-c2ccccc2)cc1

Result:
27.6
45
